Assay: Cytotoxicity against human 293T cells expressing Gluc assessed as inhibition of cell proliferation after 24 hrs by CCK8 assay
Assay type: cell-based
Details: 293T (HEK-293T) cells expressing Gluc
MEASURE_NAME: CC50 at 24 h (µM)

compound=C[C@H]1O[C@@H](O[C@H]2CC[C@]3(C)[C@H]4C=C[C@]56OC[C@@]7(CCC(C)(C)C[C@H]75)[C@@H](O)C[C@@]6(C)[C@]4(C)CC[C@H]3C2(C)C)[C@H](O)[C@@H](O[C@@H]2O[C@H](CO)[C@@H](O)[C@H](O)[C@H]2O)[C@H]1O units_label=µM limit_sign== value=2.85
compound=C[C@@H]1O[C@@H](O[C@H]2[C@H](O)[C@@H](O)[C@H](O[C@H]3CC[C@]4(C)[C@H]5C=CC6=C7CC(C)(C)CC[C@]7(CO)[C@@H](O)[C@H](O)[C@@]6(C)[C@]5(C)CC[C@H]4C3(C)C)O[C@@H]2CO[C@@H]2O[C@H](CO)[C@@H](O)[C@H](O)[C@H]2O)[C@H](O)[C@H](O)[C@H]1O units_label=µM limit_sign=> value=200
compound=C[C@H]1O[C@@H](O[C@H]2CC[C@]3(C)C4=CC=C5[C@@H]6CC(C)(C)CC[C@]6(CO)[C@H](O)C[C@@]5(C)[C@]4(C)CC[C@H]3[C@]2(C)CO)[C@H](O)[C@@H](O[C@@H]2O[C@H](CO)[C@@H](O)[C@H](O)[C@H]2O)[C@H]1O units_label=µM limit_sign== value=38.2
compound="NC(=O)c1ncn([C@@H]2O[C@H](CO)[C@@H](O)[C@H]2O)n1 [RIBAVIRIN]" units_label=µM limit_sign=> value=205
compound=C/C=C/C(=O)OC[C@H]1O[C@@H](O[C@H]2[C@@H](O)[C@@H](C)O[C@@H](O[C@H]3CC[C@@]4(C)[C@@H](CC[C@]5(C)[C@@H]4C=C[C@]46OC[C@@]7(CCC(C)(C)C[C@H]74)[C@@H](O)C[C@]65C)[C@]3(C)CO)[C@@H]2O)[C@H](O)[C@@H](O)[C@@H]1O units_label=µM limit_sign== value=7.02
compound=C[C@H]1O[C@@H](O[C@H]2CC[C@@]3(C)[C@@H](CC[C@]4(C)[C@@H]3C=CC3=C5CC(C)(C)CC[C@]5(CO)[C@@H](O)C[C@]34C)[C@]2(C)CO)[C@H](O)[C@@H](O)[C@H]1O units_label=µM limit_sign== value=24.5
compound=C[C@@H]1O[C@@H](O[C@H]2[C@H](O)[C@@H](O)[C@H](O[C@H]3CC[C@@]4(C)[C@@H](CC[C@]5(C)[C@@H]4CC=C4[C@@H]6CC(C)(C)CC[C@]6(CO)[C@@H](O)C[C@]45C)[C@]3(C)CO)O[C@@H]2CO[C@@H]2O[C@H](CO)[C@@H](O)[C@H](O)[C@H]2O)[C@H](O)[C@H](O)[C@H]1O units_label=µM limit_sign=> value=200
compound=C[C@H]1O[C@@H](O[C@H]2CC[C@]3(C)C4=CC=C5[C@@H]6CC(C)(C)CC[C@]6(CO)[C@@H](O)C[C@@]5(C)[C@]4(C)CC[C@H]3[C@]2(C)CO)[C@H](O)[C@@H](O[C@@H]2O[C@H](CO)[C@@H](O)[C@H](O)[C@H]2O)[C@H]1O units_label=µM limit_sign== value=18.9
compound=C[C@H]1O[C@@H](O[C@H]2CC[C@@]3(C)[C@@H](CC[C@]4(C)[C@@H]3C=C[C@]35OC[C@@]6(CCC(C)(C)C[C@H]63)C(=O)C[C@]54C)[C@]2(C)CO)[C@H](O)[C@@H](O[C@@H]2O[C@H](CO)[C@@H](O)[C@H](O)[C@H]2O)[C@H]1O units_label=µM limit_sign== value=3.8
compound=C[C@@H]1O[C@@H](O[C@H]2[C@H](O)[C@@H](O)[C@H](O[C@H]3CC[C@@]4(C)[C@@H](CC[C@]5(C)[C@@H]4C=CC4=C6CC(C)(C)CC[C@]6(CO)[C@@H](O)[C@H](O)[C@]45C)[C@]3(C)CO)O[C@@H]2CO[C@@H]2O[C@H](CO)[C@@H](O)[C@H](O)[C@H]2O)[C@H](O)[C@H](O)[C@H]1O units_label=µM limit_sign=> value=200
